tested on: Chinese hamster ovary cell line (CHO-K1); assay: Cytotoxicity in CHO-K1 cells (MTT) before the micronucleus test; assay type: cell-based; conditions: 100 µM, 24 hours
Classify: Met when % Viability [mean] is strictly less than 90%; Not met when % Viability [mean] is not.

| compound | category-label |
| --- | --- |
| O=C(/C=C/c1ccccc1)NCCCCCO | Not met |
| O=C(/C=C/c1ccc(Cl)cc1)NCCCCCO | Met |
| CCC(O)CNC(=O)/C=C/c1ccc(Cl)cc1 (stereo not drawn) | Not met |
| Cc1ccc(/C=C/C(=O)NCCCCCO)cc1 | Not met |
| CC(CO)NC(=O)/C=C/c1ccc(Cl)cc1 (stereo not drawn) | Met |

----------
test system: S. typhimurium TA1535; assay: Ames microplate test, TA1535; conditions: 1.0 mM, +S9;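 further: bacteria exposed to compound 90 min at 37 °C, then kept 48 h at 37 °C with indicator medium in 384-well plates, scoring wells that turned yellow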
property: Increase in the number of yellow wells compared to the reference level

| compound | meas-value |
| --- | --- |
| O=C(/C=C/c1ccccc1)NCCCCCCO | 0.40 |
| O=C(/C=C/c1ccccc1)NCCCCCO | 0.23 |
| CCC(O)CNC(=O)/C=C/c1ccc(Cl)cc1 (stereo not shown) | 0.54 |
| O=C(/C=C/c1ccc(Cl)cc1)NCCCCCO | 0.35 |

----------
Below, each of the molecules is paired with its reported Primary melanocytes LDH value.
system: Primary melanocytes; assay: Safety, LDH test in primary melanocytes; format: cell-based; conditions: 100 µM; 48 hours; positive control Triton X-100
property: Primary melanocytes LDH

| smi | property | meas-value |
| --- | --- | --- |
| O=C(/C=C/c1ccccc1)NCCCCCO | Primary melanocytes LDH | 4.68 percentage of positive control |
| Cc1ccc(/C=C/C(=O)NCCCCCO)cc1 | Primary melanocytes LDH | 4.22 percentage of positive control |
| O=C(/C=C/c1ccc(Cl)cc1)NCCCO | Primary melanocytes LDH | 5.63 percentage of positive control |
| O=C(/C=C/c1ccc(Cl)cc1)NCCO | Primary melanocytes LDH | 3.93 percentage of positive control |
| O=C(/C=C/c1ccc(Cl)cc1)NCCCCCO | Primary melanocytes LDH | 3.31 percentage of positive control |

----------
system: Fibroblasts (BJ); test: Safety, LDH test in fibroblasts; type: cell-based; settings: 150 µM; 48 hours; positive control Triton X-100
The reader will find reported Fibroblasts (BJ) LDH values listed item by item below.
property: Fibroblasts (BJ) LDH

| smi | meas-value |
| --- | --- |
| O=C(/C=C/c1ccc(Cl)cc1)NCCCCCO | 5.37 percentage of positive control |
| Cc1ccc(/C=C/C(=O)NCCCCCO)cc1 | 8.75 percentage of positive control |
| O=C(/C=C/c1ccc(Cl)cc1)NCCO | 5.92 percentage of positive control |
| O=C(/C=C/c1ccccc1)NCCCCCO | 4.47 percentage of positive control |
| O=C(/C=C/c1ccc(Cl)cc1)NCCCO | 6.50 percentage of positive control |

----------
In this section, each of the compounds is paired with its reported MN (number of micronuclei in 1000 binucleate cells).
tested on: Chinese hamster ovary cell line (CHO-K1); assay: Genotoxicity in the micronucleus test in CHO-K1 cells; assay type: cell-based; conditions: 150 µM
property: MN (number of micronuclei in 1000 binucleate cells)

| compound | meas-value |
| --- | --- |
| CC(CO)NC(=O)/C=C/c1ccc(Cl)cc1 (stereo not drawn) | 6.5 |
| O=C(/C=C/c1ccccc1)NCCCCCO | 6.0 |
| CCC(O)CNC(=O)/C=C/c1ccc(Cl)cc1 (stereo not drawn) | 8.0 |
| Cc1ccc(/C=C/C(=O)NCCCCCO)cc1 | 12.0 |
| O=C(/C=C/c1ccccc1)NCCCCCCO | 11.5 |
| O=C(/C=C/c1ccc(Cl)cc1)NCCCCCO | 9.0 |
